Recorded μmoles NADH /min/mg by entry
test system: oxidative phosphorylation at site I (ETPH particles); assay: Assay of CoQ and analogs for oxidative phosphorylation at site I with ETPH particles; type: biochemical; conditions: CoQ or analog 0.12 nM (footnote 0.12 mM); 200 μg ETPH particles; no rotenone

| COMPOUND | TEST SYSTEM | μmoles NADH /min/mg (μmoles NADH /min/mg) |
| --- | --- | --- |
| CCCCCC1=C(C)C(=O)C(OC)=C(OC)C1=O | oxidative phosphorylation at site I (ETPH particles) | 0.47 |
| COC1=C(OC)C(=O)C(C/C=C(\C)CCC=C(C)C)=C(C)C1=O [Q2, reference compound] | oxidative phosphorylation at site I (ETPH particles) | 0.25 |
| COC1=C(OC)C(=O)C(CC=C(C)C)=C(C)C1=O [Q1, reference compound] | oxidative phosphorylation at site I (ETPH particles) | 0.45 |
| CCCCCCCCCCC1=C(C)C(=O)C(OC)=C(OC)C1=O | oxidative phosphorylation at site I (ETPH particles) | 0.52 |
